# System: MDR1 mRNA
# test: MDR1 mRNA expression by Northern blotting in MDR 3T3 cells
# Type: cell-based, human
# experimental_parameters: oligonucleotide 1 μm, 24 hours, with Lipofectin, serum free medium
metric_name: MDR1 mRNA Level (arbitrary units)

Here is how some substances turned out for MDR1 mRNA Level (arbitrary units).
substance	MDR1 mRNA Level (arbitrary units)
CAC-CAC-CCC-CCT-CGC-TGG-TC (CACCACCCCCCTCGCTGGTC; chemistry not given here) [ISIS 10221, reference compound]	456,522 arbitrary units
CTC-CCG-CAC-ATC-TCC-GCG-CC (CTCCCGCACATCTCCGCGCC; all phosphorothioate, sugars by position and methylation of C not given here) [ISIS 10222, reference compound]	406,522 arbitrary units
GAG-CCG-CTA-CTC-GAA-TGA-GC (GAGCCGCTACTCGAATGAGC; all phosphorothioate, sugars by position and methylation of C not given here) [ISIS 5990]	443,478 arbitrary units

Switching to the query record.
The substance CCA-TCC-CGA-CCT-CGC-GCT-CC (CCATCCCGACCTCGCGCTCC; chemistry not given here) [ISIS 5995] , when measured on MDR1 mRNA, yielded MDR1 mRNA Level (arbitrary units) of 226,087 arbitrary units

----------
# % Control (MDR1 mRNA) annotations
# Tested on: MDR1 mRNA
# test: MDR1 mRNA expression by Northern blotting in MDR 3T3 cells
# Type: cell-based, human
# experimental_parameters: oligonucleotide 1 μm, 24 hours, with Lipofectin; control = untreated cells
Please respond with the number in % and leave the unit unwritten.

substance	metric_name	experimental_result
CAC-CAC-CCC-CCT-CGC-TGG-TC (CACCACCCCCCTCGCTGGTC; chemistry not given here) [ISIS 10221, reference compound]	% Control (MDR1 mRNA)	96
GAG-CCG-CTA-CTC-GAA-TGA-GC (GAGCCGCTACTCGAATGAGC; all phosphorothioate, sugars by position and methylation of C not given here) [ISIS 5990]	% Control (MDR1 mRNA)	94

Briefly, % Control (MDR1 mRNA) measured for CCA-TCC-CGA-CCT-CGC-GCT-CC (CCATCCCGACCTCGCGCTCC; chemistry not given here) [ISIS 5995] : 48

The reported value for CTC-CCG-CAC-ATC-TCC-GCG-CC (CTCCCGCACATCTCCGCGCC; all phosphorothioate, sugars by position and methylation of C not given here) [ISIS 10222, reference compound] in terms of % Control (MDR1 mRNA) is 86
